procedure.summary: Cytotoxicity against human THP1 cells assessed as decrease in cell viability after 24 hrs by MTT assay
Format: cell-based
settings: THP-1 cells
measurement.type: IC20 at 24 h

{"smiles.data": "O=C(NNCCCN1CCC(N2c3ccccc3Sc3ccc(Cl)cc32)CC1)c1ccncc1", "measurement.type": "IC20 at 24 h", "value": "2.2 µM"}
{"smiles.data": "CN(C)CCCN1c2ccccc2Sc2ccc(Cl)cc21", "measurement.type": "IC20 at 24 h", "value": "4 µM"}
{"smiles.data": "O=C(NNCCCN1c2ccccc2Sc2ccc(Cl)cc21)c1ccccc1", "measurement.type": "IC20 at 24 h", "value": "> 100 µM"}
{"smiles.data": "O=C(NNCCCN1c2ccccc2CCc2ccccc21)c1ccncc1", "measurement.type": "IC20 at 24 h", "value": "> 100 µM"}
{"smiles.data": "NNC(=O)c1ccncc1", "measurement.type": "IC20 at 24 h", "value": "> 100 µM"}
{"smiles.data": "O=C(NNCCCN1c2ccccc2Sc2ccc(Cl)cc21)c1ccncc1", "measurement.type": "IC20 at 24 h", "value": "24.4 µM"}
{"smiles.data": "O=C(NNCCCN1c2ccccc2Sc2ccccc21)c1ccccc1", "measurement.type": "IC20 at 24 h", "value": "> 100 µM"}
{"smiles.data": "O=C(NNCCCN1c2ccccc2Sc2ccccc21)c1ccncc1", "measurement.type": "IC20 at 24 h", "value": "> 100 µM"}

---

Consider the following compounds and their measured MIC99 readings.
Test system: Mycobacterium tuberculosis
procedure.summary: Antimycobacterial activity against Mycobacterium tuberculosis H37Rv by two fold serial dilution based fluorescence assay
Assay type: functional

{"smiles.data": "O=C(NNCCCN1c2ccccc2CCc2ccccc21)c1ccncc1", "MIC99": "1 µM"}
{"smiles.data": "O=C(NNCCCN1CCN(CC(O)(c2ccccc2)c2ccccc2)CC1)c1ccncc1", "MIC99": "1.25 µM"}
{"smiles.data": "O=C(NNCCCNCCCN1c2ccccc2Sc2ccccc21)c1ccncc1", "MIC99": "5 µM"}
{"smiles.data": "O=C(NNCCCN1c2ccccc2Sc2ccc(Cl)cc21)c1ccccc1", "MIC99": "> 10 µM"}
{"smiles.data": "O=C(NNCCCN1CCC(=C2c3ccccc3Sc3ccccc32)CC1)c1ccncc1", "MIC99": "1.25 µM"}
{"smiles.data": "O=C(NNCCCN1CCN(C2c3ccccc3CCc3ccccc32)CC1)c1ccncc1", "MIC99": "5 µM"}
{"smiles.data": "O=C(NNCCCN1CCN(C(c2ccccc2)c2ccccc2)CC1)c1ccncc1", "MIC99": "5 µM"}

---

Test system: Mycobacterium tuberculosis
procedure.summary: Antimycobacterial activity against Mycobacterium tuberculosis H37Rv by two fold serial dilution based fluorescence assay
Assay type: functional
MIC99: recorded values

{"compound": "O=C(NNCCCN1CCC(=C2c3ccccc3Sc3ccc(Cl)cc32)CC1)c1ccncc1", "endpoint.unit": "µM", "cmp": "=", "MIC99": 0.625}
{"compound": "O=C(NNCCCN1c2ccccc2Sc2ccccc21)c1ccccc1", "endpoint.unit": "µM", "cmp": ">", "MIC99": 10}
{"compound": "NNC(=O)c1ccncc1 [ISONIAZID]", "endpoint.unit": "µM", "cmp": "=", "MIC99": 0.73}
{"compound": "O=C(NNCCCN1CCN(C(c2ccccc2)(c2ccccc2)c2ccccc2)CC1)c1ccncc1", "endpoint.unit": "µM", "cmp": "=", "MIC99": 1.25}
{"compound": "O=C(NNCCCN1CCC(=C2c3ccccc3C=Cc3ccccc32)CC1)c1ccncc1", "endpoint.unit": "µM", "cmp": "=", "MIC99": 1.25}
{"compound": "O=C(NNCCCN1CCC(N2c3ccccc3Sc3ccccc32)CC1)c1ccncc1", "endpoint.unit": "µM", "cmp": "=", "MIC99": 5}
{"compound": "O=C(NNCCCN1c2ccccc2Sc2ccc(Cl)cc21)c1ccncc1", "endpoint.unit": "µM", "cmp": "=", "MIC99": 0.25}
{"compound": "O=C(NNCCCNCCCN1c2ccccc2Sc2ccc(Cl)cc21)c1ccncc1", "endpoint.unit": "µM", "cmp": "=", "MIC99": 5}
{"compound": "O=C(NNCCCN1c2ccccc2Sc2ccccc21)c1ccncc1", "endpoint.unit": "µM", "cmp": "=", "MIC99": 1}
{"compound": "O=C(NNCCCN1CCC(N2c3ccccc3Sc3ccc(Cl)cc32)CC1)c1ccncc1", "endpoint.unit": "µM", "cmp": "=", "MIC99": 1}
